The reported measurements were obtained from patent US8383581B2.

# procedure.details: Stability of peptides in simulated gastric fluid (pH 1.5; HCl, NaCl and Pepsin)
# Format: in vitro ADME
# measurement.context: simulated gi fluid, pH 1.5
# Procedure: b) Stability of Peptides in Human Plasma, Simulated Gastric Fluid, Intestinal Fluid and Liver Microsomes (Ex-Vivo): Different short-chain peptides (final concentration 2 μM) were incubated with either pooled human plasma (7.5 μL) or simulated gastric fluid (pH 1.5; composition HCl, NaCl and Pepsin) or simulated intestinal fluid (pH 7.5) or human liver microsomes, for 0, 2, 4, 6, 12 and 24 h (37° C.; 50 mM triethanolamine-HCl buffer; pH 7.8). […]
Where a SMILES comes first, the peptide text is derived from it. [ ]: non-standard residue; d: D form. ξ: configuration not given here. ξαMePhe(2,6-F2) = CC(N)(Cc1c(F)cccc1F)C(=O)O; ξαMePhe(2-F) = CC(N)(Cc1ccccc1F)C(=O)O; hArg = N=C(N)NCCCC[C@H](N)C(=O)O; hCit = NC(=O)NCCCC[C@H](N)C(=O)O; Cit = NC(=O)NCCC[C@H](N)C(=O)O; Nle = CCCC[C@H](N)C(=O)O; Orn = NCCC[C@H](N)C(=O)O; ξαMeP = CC1(C(=O)O)CCCN1; Ac5c = NC1(C(=O)O)CCCC1; Aib = CC(C)(N)C(=O)O
Here, each record is paired with measured half-life data.
Entry rule: numbers only, all in h.

The following compounds have reported results that may help.
Task item: Please look up its half-life: CCCC[C@H](NC(=O)C(C)(Cc1ccccc1F)NC(=O)[C@H](CCC(N)=O)NC(=O)[C@@H](NC(=O)[C@H](CCC(=O)O)NC(=O)C(C)(C)NC(=O)[C@@H](NC(=O)C(C)(C)N)C(C)C)[C@@H](C)CC)C(=O)N[C@@H](Cc1c[nH]cn1)C(=O)N[C@@H](CCC(N)=O)C(=O)N[C@@H](CCCN)C(=O)NC(C)(C)C(=O)N[C@@H](CCCNC(N)=O)C(=O)NC(C)(Cc1c(F)cccc1F)C(N)=O (stereo partly shown) [Seq. ID. 290] (H-[Aib]V[Aib]EIQ[ξαMePhe(2-F)][Nle]HQ[Orn][Aib][Cit][ξαMePhe(2,6-F2)]-NH2)
Reply: 0.5

Task item: Please look up its half-life: CCCC[C@H](NC(=O)C(C)(Cc1ccccc1F)NC(=O)[C@H](CCC(N)=O)NC(=O)[C@@H](NC(=O)[C@H](CCC(=O)O)NC(=O)C1(NC(=O)[C@@H](NC(=O)C2(N)CCCC2)C(C)C)CCCC1)[C@@H](C)CC)C(=O)N[C@@H](Cc1c[nH]cn1)C(=O)N[C@@H](CCC(N)=O)C(=O)N[C@@H](CCCCNC(=N)N)C(=O)N1CCCC1(C)C(=O)N[C@@H](CCCCN)C(=O)NC(C)(Cc1c(F)cccc1F)C(N)=O (stereo partly shown) [Seq. ID. 100] (H-[Ac5c]V[Ac5c]EIQ[ξαMePhe(2-F)][Nle]HQ[hArg][ξαMeP]K[ξαMePhe(2,6-F2)]-NH2)
Reply: 4

Task item: Please look up its half-life: CCCC[C@H](NC(=O)C(C)(Cc1c(F)cccc1F)NC(=O)[C@H](CCC(N)=O)NC(=O)[C@@H](NC(=O)[C@H](CCC(=O)O)NC(=O)C(C)(C)NC(=O)[C@@H](NC(=O)C1(N)CCCC1)C(C)C)[C@@H](C)CC)C(=O)N[C@@H](Cc1c[nH]cn1)C(=O)N[C@@H](CCC(N)=O)C(=O)N[C@@H](CCCCNC(N)=O)C(=O)NC(C)(C)C(=O)NC(C)(C)C(=O)NC(C)(Cc1c(F)cccc1F)C(N)=O (stereo partly shown) [Seq. ID. 440] (H-[Ac5c]V[Aib]EIQ[ξαMePhe(2,6-F2)][Nle]HQ[hCit][Aib][Aib][ξαMePhe(2,6-F2)]-NH2)
Reply: 4

Kindly consider the entry below.
Task item: Please look up its half-life: CCCC[C@H](NC(=O)C(C)(Cc1ccccc1F)NC(=O)[C@H](CCC(N)=O)NC(=O)[C@@H](NC(=O)[C@H](CCC(=O)O)NC(=O)C(C)(C)NC(=O)[C@@H](NC(=O)C(C)(C)N)C(C)C)[C@@H](C)CC)C(=O)N[C@@H](Cc1c[nH]cn1)C(=O)N[C@@H](CCC(N)=O)C(=O)N[C@@H](CCCNC(N)=O)C(=O)N[C@@H](C)C(=O)N[C@@H](CCCNC(N)=O)C(=O)NC(C)(Cc1ccccc1F)C(N)=O (stereo partly shown) [Seq. ID. 345] (H-[Aib]V[Aib]EIQ[ξαMePhe(2-F)][Nle]HQ[Cit]A[Cit][ξαMePhe(2-F)]-NH2)
Reply: 0.5

----------
# procedure.details: Stability of peptides in simulated intestinal fluid (pH 7.5)
# Type: in vitro ADME
# measurement.context: simulated gi fluid, pH 7.5
Where a SMILES comes first, the peptide text is derived from it. [ ]: non-standard residue; d: D form. ξ: configuration not given here. ξBip(2'-Et-4'-OMe) = CCc1cc(OC)ccc1-c1ccc(CC(N)C(=O)O)cc1; hhPhe = N[C@@H](CCCc1ccccc1)C(=O)O; Nle = CCCC[C@H](N)C(=O)O; Orn = NCCC[C@H](N)C(=O)O; Aib = CC(C)(N)C(=O)O
measured.endpoint: half-life

Task item: Please look up its half-life: CCCC[C@H](NC(=O)[C@H](CC(C)C)NC(=O)[C@H](CCC(N)=O)NC(=O)[C@@H](NC(=O)[C@H](CCC(=O)O)NC(=O)C(C)(C)NC(=O)[C@@H](NC(=O)C(C)(C)N)C(C)C)[C@@H](C)CC)C(=O)N[C@@H](Cc1c[nH]cn1)C(=O)N[C@@H](CCC(N)=O)C(=O)N[C@@H](CCCN)C(=O)N[C@@H](C)C(=O)NC(C)(C)C(=O)NC(Cc1ccc(-c2ccc(OC)cc2CC)cc1)C(=O)N[C@@H](CCCc1ccccc1)C(N)=O (stereo partly shown) [Seq. ID. 750] (H-[Aib]V[Aib]EIQL[Nle]HQ[Orn]A[Aib][ξBip(2'-Et-4'-OMe)][hhPhe]-NH2)
Reply: > 24 h

----------
# procedure.details: Stability of peptides in human plasma
# Type: in vitro ADME
# measurement.context: human, plasma, pH 7.8
Where a SMILES comes first, the peptide text is derived from it. [ ]: non-standard residue; d: D form. ξ: configuration not given here. Arg(NO2) = N=C(NCCC[C@H](N)C(=O)O)N[N+](=O)[O-]; αMePhe(2-F) = C[C@](N)(Cc1ccccc1F)C(=O)O; hArg = N=C(N)NCCCC[C@H](N)C(=O)O; ξαMeF = CC(N)(Cc1ccccc1)C(=O)O; Nle = CCCC[C@H](N)C(=O)O; Orn = NCCC[C@H](N)C(=O)O; Ac3c = NC1(C(=O)O)CC1; Aib = CC(C)(N)C(=O)O
measured.endpoint: metabolised at 24 h, 2 μM (%)
Entry rule: numbers only, all in %.

Task item: Please look up its metabolised at 24 h, 2 μM: CCCC[C@H](NC(=O)[C@](C)(Cc1ccccc1F)NC(=O)[C@H](CCC(N)=O)NC(=O)[C@@H](NC(=O)[C@H](CCC(=O)O)NC(=O)C(C)(C)NC(=O)[C@@H](NC(=O)C(C)(C)N)C(C)C)[C@@H](C)CC)C(=O)N[C@@H](Cc1c[nH]cn1)C(=O)N[C@@H](CCC(N)=O)C(=O)N[C@@H](CCCN)C(=O)N[C@@H](C)C(=O)N[C@@H](CCCNC(=N)N[N+](=O)[O-])C(=O)N[C@@](C)(Cc1ccccc1F)C(N)=O [Seq. ID. 329] (H-[Aib]V[Aib]EIQ[αMePhe(2-F)][Nle]HQ[Orn]A[Arg(NO2)][αMePhe(2-F)]-NH2)
Reply: 70

Kindly consider the entry below.
Task item: Please look up its metabolised at 24 h, 2 μM: CC[C@H](C)[C@H](NC(=O)[C@H](CCC(=O)O)NC(=O)C(C)(C)NC(=O)[C@@H](NC(=O)C1(N)CC1)C(C)C)C(=O)N[C@@H](CCC(N)=O)C(=O)N[C@@H](CC(C)C)C(=O)N[C@@H](CCSC)C(=O)N[C@@H](Cc1c[nH]cn1)C(=O)N[C@@H](CCC(N)=O)C(=O)N[C@@H](CCCCNC(=N)N)C(=O)NC(C)(C)C(=O)N[C@@H](CCCCN)C(=O)NC(C)(Cc1ccccc1)C(N)=O (some centres unmarked) [Seq. ID. 14] (H-[Ac3c]V[Aib]EIQLMHQ[hArg][Aib]K[ξαMeF]-NH2)
Reply: 69

----------
# procedure.details: Stability of peptides in simulated gastric fluid (pH 1.5; HCl, NaCl and Pepsin)
# Format: in vitro ADME
# measurement.context: simulated gi fluid, pH 1.5
Where a SMILES comes first, the peptide text is derived from it. [ ]: non-standard residue; d: D form. αMePhe(2,6-F2) = C[C@](N)(Cc1c(F)cccc1F)C(=O)O; αMePhe(2-F) = C[C@](N)(Cc1ccccc1F)C(=O)O; hArg = N=C(N)NCCCC[C@H](N)C(=O)O; Nle = CCCC[C@H](N)C(=O)O; Ac5c = NC1(C(=O)O)CCCC1; Aib = CC(C)(N)C(=O)O
measured.endpoint: half-life (min)
Entry rule: numbers only, all in min.

Task item: Please look up its half-life: CCCC[C@H](NC(=O)[C@](C)(Cc1c(F)cccc1F)NC(=O)[C@H](CCC(N)=O)NC(=O)[C@@H](NC(=O)[C@H](CCC(=O)O)NC(=O)C(C)(C)NC(=O)[C@@H](NC(=O)C1(N)CCCC1)C(C)C)[C@@H](C)CC)C(=O)N[C@@H](Cc1c[nH]cn1)C(=O)N[C@@H](CCC(N)=O)C(=O)N[C@@H](CCCCNC(=N)N)C(=O)NC(C)(C)C(=O)N[C@@H](CCCCN)C(=O)N[C@@](C)(Cc1ccccc1F)C(N)=O [Seq. ID. 85] (H-[Ac5c]V[Aib]EIQ[αMePhe(2,6-F2)][Nle]HQ[hArg][Aib]K[αMePhe(2-F)]-NH2)
Reply: 30
